# studyTarget: KRAS G12D (Homo sapiens, UniProt P01116, G12D)
# Sequence (P01116 1-188 isoform P01116-2 G12D): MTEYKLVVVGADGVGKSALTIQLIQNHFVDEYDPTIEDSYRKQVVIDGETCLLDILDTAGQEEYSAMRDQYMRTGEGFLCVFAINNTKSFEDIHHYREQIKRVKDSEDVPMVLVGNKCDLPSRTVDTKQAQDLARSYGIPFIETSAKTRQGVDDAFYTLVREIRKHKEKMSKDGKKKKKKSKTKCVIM
# procedureDetails: KRAS G12D Probe Displacement Assay (TR-FRET, GDP-loaded)
# Format: binding
# condition: KRAS G12D, read-out: KRAS^G12D Probe Displacement Assay IC50
# From the text: The synthetic routes of probe 1 and 2, which have been disclosed in PCT/CN2022/070676, are hereby incorporated herein.
measureName: IC50

[[record]]
molecule = "Cc1cc(N)cc(-c2nc3c4c(nc(OCC5(CN6CCC7(C6)CC7(F)F)CC5)nc4c2F)N2C[C@H]4CC[C@H](N4)[C@H]2CCO3)c1C(F)(F)F (single isomer, unassigned) [Example 138]"
observedresult = "< 300 pM"

[[record]]
molecule = "Cc1cc(N)cc(-c2nc3c4c(nc(O[C@@H](C)[C@@H]5CCCN5C5COC5)nc4c2F)N2C[C@H]4CC[C@H](N4)[C@H]2CCO3)c1C(F)(F)F [Example 227]"
observedresult = "< 300 pM"

[[record]]
molecule = "Cc1cc(N)cc(-c2nc3c4c(nc(OCC5(CN6CCCC(C)(O)C6)CC5)nc4c2F)N2C[C@H]4CC[C@H](N4)[C@H]2CCO3)c1C(F)(F)F (mixture of isomers) [Example 116]"
observedresult = "300 to 3000 pM"

[[record]]
molecule = "Cc1cc(N)cc(-c2nc3c4c(nc(OCC5(CN6CCOC[C@@H]6C)CC5)nc4c2F)N2C[C@H]4CC[C@H](N4)[C@H]2CCO3)c1C(F)(F)F [Example 164]"
observedresult = "< 300 pM"

[[record]]
molecule = "COC[C@H]1[C@H]2C[C@H]2CN1CC1(COc2nc3c4c(nc(-c5cc(N)cc(C)c5C(F)(F)F)c(F)c4n2)OCC[C@@H]2[C@@H]4CC[C@H](CN32)N4)CC1 [Example 183]"
observedresult = "< 300 pM"


Working through the 6 molecules below one at a time, give IC50 for each.
1. Cc1nc(N)cc(-c2nc3c4c(nc(OCC5(CN6CCC(=C(F)F)CC6)CC5)nc4c2F)N2C[C@H]4CC[C@H](N4)[C@H]2CCO3)c1C(F)(F)F [Example 147]
2. Cc1cc(N)cc(-c2nc3c4c(nc(OCC5(CN6CC(F)(F)C6)CC5)nc4c2F)N2C[C@H]4CC[C@H](N4)[C@H]2CCO3)c1C(F)(F)F [Example 82]
3. C[C@]1(COc2nc3c4c(nc(-c5cc(N)cc(Cl)c5C(F)(F)F)c(F)c4n2)OCC[C@@H]2[C@@H]4CC[C@H](CN32)N4)CCCN(C2CCOCC2)C1 [Example 196]
4. CO[C@@H]1C[C@@H](C(C)Oc2nc3c4c(nc(-c5cc(N)cc(C)c5C(F)(F)F)c(F)c4n2)OCC[C@@H]2[C@@H]4CC[C@H](CN32)N4)N(C)C1 (single isomer, unassigned) [Example 145]
5. Cc1cc(N)cc(-c2nc3c4c(nc(OCC5(CN6CCC(C(F)(F)F)C6)CC5)nc4c2F)N2C[C@H]4CC[C@H](N4)[C@H]2CCO3)c1C(F)(F)F (some centres unmarked) [Example 91]
6. Cc1cc(N)cc(-c2nc3c4c(nc(OCC5(CN6CCc7cnn(C)c7C6)CC5)nc4c2F)N2C[C@H]4CC[C@H](N4)[C@H]2CCO3)c1C(F)(F)F [Example 193]

Output:
["< 300 pM", "300 to 3000 pM", "< 300 pM", "300 to 3000 pM", "< 300 pM", "< 300 pM"]

* * *

# studyTarget: KRAS G12D (Homo sapiens, UniProt P01116, G12D)
# procedureDetails: KRAS G12D Probe Displacement Assay (TR-FRET, GDP-loaded)
# Type: binding
# condition: KRAS^G12D Probe Displacement Assay IC50, KRAS G12D
# Description: The synthetic routes of probe 1 and 2, which have been disclosed in PCT/CN2022/070676, are hereby incorporated herein.
pIC50: −log10 of the molar value.
measureName: pIC50

Below, each entry is followed by its recorded pIC50 result.
[[record]]
compound = "Cc1cc(N)cc(-c2nc3c4c(nc(OCC5(CN6CC=CCC6)CC5)nc4c2F)N2C[C@H]4CC[C@H](N4)[C@H]2CCO3)c1C(F)(F)F"
observedresult = "> 9.52"

[[record]]
compound = "Cc1cc(N)cc(-c2nc3c4c(nc(OCC5(CN6CCC(=C(F)F)CC6)CC5)nc4c2F)N2C[C@H]4CC[C@H](N4)[C@H]2CCO3)c1C(F)(F)F"
observedresult = "> 9.52"

[[record]]
compound = "Cc1cc(N)cc(-c2nc3c4c(nc(OCC5(CN6CCC(=C(F)F)C6)CC5)nc4c2F)N2C[C@H]4CC[C@H](N4)[C@H]2CCO3)c1C(F)(F)F"
observedresult = "> 9.52"

[[record]]
compound = "COC1CN(CC2(COc3nc4c5c(nc(-c6cc(N)cc(C)c6C(F)(F)F)c(F)c5n3)OCC[C@@H]3[C@@H]5CC[C@H](CN43)N5)CC2(F)F)C1 (single isomer, unassigned) [Example 21]"
observedresult = "8.52 to 9.52"

[[record]]
compound = "COC1CN(CC2(COc3nc4c5c(nc(-c6cc(N)cc(C)c6C(F)(F)F)c(F)c5n3)OCC[C@@H]3[C@@H]5CC[C@H](CN43)N5)CC2(F)F)C1 (single isomer, unassigned) [Example 20]"
observedresult = "> 9.52"


Input: Which pIC50 value is on record for Cc1cc(N)cc(-c2nc3c4c(nc(OCC5(CN(C)C)CC5F)nc4c2F)N2C[C@H]4CC[C@H](N4)[C@H]2CCO3)c1C(F)(F)F (single isomer, unassigned) ?
Output: > 9.52

* * *

# studyTarget: WT KRAS (Homo sapiens)
# Sequence (P01116 1-188 isoform P01116-2): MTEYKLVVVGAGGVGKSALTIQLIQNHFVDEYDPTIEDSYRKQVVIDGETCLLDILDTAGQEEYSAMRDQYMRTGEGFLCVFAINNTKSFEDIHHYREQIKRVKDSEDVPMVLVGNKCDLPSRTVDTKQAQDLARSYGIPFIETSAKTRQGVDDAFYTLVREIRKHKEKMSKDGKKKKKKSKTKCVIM
# procedureDetails: KRAS WT Probe Displacement Assay (TR-FRET, GDP-loaded)
# Assay type: binding
# condition: KRAS^WT Probe Displacement Assay IC50, KRAS WT
For each entry below, report its IC50 value.

[[record]]
molecule = "Cc1cc(N)cc(-c2nc3c4c(nc(OCC5(CN6CCC(F)(F)C6)CC5)nc4c2F)N2C[C@H]4CC[C@H](N4)[C@H]2CCO3)c1C(F)(F)F"
studytarget = "WT KRAS (Homo sapiens)"
measurename = "IC50"
observedresult = "3 to 1000 nM"

[[record]]
molecule = "Cc1cc(N)cc(-c2nc3c4c(nc(OCC5(CN(C)C)CC5F)nc4c2F)N2C[C@H]4CC[C@H](N4)[C@H]2CCO3)c1C(F)(F)F (single isomer, unassigned)"
studytarget = "WT KRAS (Homo sapiens)"
measurename = "IC50"
observedresult = "3 to 1000 nM"

[[record]]
molecule = "CO[C@H]1CCN(CC2(COc3nc4c5c(nc(-c6cc(N)cc(C)c6C(F)(F)F)c(F)c5n3)OCC[C@@H]3[C@@H]5CC[C@H](CN43)N5)CC2)C1"
studytarget = "WT KRAS (Homo sapiens)"
measurename = "IC50"
observedresult = "3 to 1000 nM"

[[record]]
molecule = "Cc1cc(N)cc(-c2nc3c4c(nc(OCC5(CN6CC=CCC6)CC5)nc4c2F)N2C[C@H]4CC[C@H](N4)[C@H]2CCO3)c1C(F)(F)F"
studytarget = "WT KRAS (Homo sapiens)"
measurename = "IC50"
observedresult = "3 to 1000 nM"


Input: What value of IC50 has been reported for the following molecule? `Cc1cc(N)cc(-c2nc3c4c(nc(OCC5(CN6CC=CC6)CC5)nc4c2F)N2C[C@H]4CC[C@H](N4)[C@H]2CCO3)c1C(F)(F)F`
Output: 3 to 1000 nM

* * *

# studyTarget: WT KRAS (Homo sapiens)
# procedureDetails: KRAS WT Probe Displacement Assay (TR-FRET, GDP-loaded)
# Type: binding
# condition: KRAS WT, read-out: KRAS^WT Probe Displacement Assay IC50
pIC50: −log10 of the molar value.
measureName: pIC50

The examples below pair each entry with its known result.
[[record]]
compound = "Cc1cc(N)cc(-c2nc3c4c(nc(OCC5(CN6CCC(O)(C(F)(F)F)CC6)CC5)nc4c2F)N2C[C@H]4CC[C@H](N4)[C@H]2CCO3)c1C(F)(F)F [Example 114]"
observedresult = "8.52 to 9.52"

[[record]]
compound = "Cc1cc(N)cc(-c2nc3c4c(nc(OCC5(CN6CCC(C)(O)CC6)CC5)nc4c2F)N2C[C@H]4CC[C@H](N4)[C@H]2CCO3)c1C(F)(F)F [Example 115]"
observedresult = "8.52 to 9.52"

[[record]]
compound = "Cc1cc(N)cc(-c2nc3c4c(nc(OC[C@]5(CN(C)C)CC5(F)F)nc4c2F)N2C[C@H]4CC[C@H](N4)[C@H]2CC(C)O3)c1C(F)(F)F (single isomer, unassigned) [Example 248]"
observedresult = "8.52 to 9.52"

[[record]]
compound = "Cc1cc(N)cc(-c2nc3c4c(nc(OC[C@@]5(C)CCCN(C6COC6)C5)nc4c2F)N2C[C@H]4CC[C@H](N4)[C@H]2CCO3)c1C(F)(F)F [Example 197]"
observedresult = "6.00 to 8.52"


Input: Suppose we examine the compound Cc1cc(N)cc(-c2nc3c4c(nc(O[C@H]5C[C@@H]6C[C@H]5CN(C)C6)nc4c2F)N2C[C@H]4CC[C@H](N4)[C@H]2CCO3)c1C(F)(F)F [Example 198] ; what pIC50 value has been reported?
Output: 6.00 to 8.52
